MEASUREMENT NOTES: Stability of example compounds in solid form (HPLC)
Type: physicochemical
TEST CONDITIONS: solid, amber vial under Ar, 1 week, −20° C.
MEASURED PARAMETER: Solid (%) 1 week −20° C.
Write the number in % without appending the unit.

Can you look up the measured Solid (%) 1 week −20° C. of CC(C)(C)OC(=O)[C@@H](CCCOS(=O)(=O)c1ccc(-c2ccc(S(=O)(=O)OCCC[C@@H](C[C@H](NC(c3ccccc3)(c3ccccc3)c3ccccc3)C(=O)OC(C)(C)C)C(=O)OC(C)(C)C)cc2)cc1)C[C@H](NC(c1ccccc1)(c1ccccc1)c1ccccc1)C(=O)OC(C)(C)C for me?
98.0

Can you look up the measured Solid (%) 1 week −20° C. of CC(C)(C)OC(=O)[C@@H](CCCOS(=O)(=O)c1ccc2ccccc2c1)C[C@H](NC(c1ccccc1)(c1ccccc1)c1ccccc1)C(=O)OC(C)(C)C for me?
99.8

Can you look up the measured Solid (%) 1 week −20° C. of CC(C)(C)OC(=O)[C@@H](CCCOS(=O)(=O)c1cccc2cccnc12)C[C@H](NC(c1ccccc1)(c1ccccc1)c1ccccc1)C(=O)OC(C)(C)C for me?
89.6

----------
MEASUREMENT NOTES: Stability of example compounds in solid form (HPLC)
Assay type: physicochemical
TEST CONDITIONS: purity by HPLC before the study
MEASURED PARAMETER: Solid (%) Start
Write the number in % without appending the unit.

[
  {
    "MOLECULE": "CC(C)(C)OC(=O)[C@@H](CCCOS(=O)(=O)c1ccc(-c2ccc(S(=O)(=O)OCCC[C@@H](C[C@H](NC(c3ccccc3)(c3ccccc3)c3ccccc3)C(=O)OC(C)(C)C)C(=O)OC(C)(C)C)cc2)cc1)C[C@H](NC(c1ccccc1)(c1ccccc1)c1ccccc1)C(=O)OC(C)(C)C [Ig]",
    "Solid (%) Start": 97.9
  },
  {
    "MOLECULE": "CC(C)(C)OC(=O)[C@@H](CCCOS(=O)(=O)c1ccc([N+](=O)[O-])cc1)C[C@H](NC(c1ccccc1)(c1ccccc1)c1ccccc1)C(=O)OC(C)(C)C [Ia]",
    "Solid (%) Start": 99.4
  }
]

Can you look up the measured Solid (%) Start of CC(C)(C)OC(=O)[C@@H](CCCOS(=O)(=O)c1ccc2ccccc2c1)C[C@H](NC(c1ccccc1)(c1ccccc1)c1ccccc1)C(=O)OC(C)(C)C [Id] for me?
99.8

----------
MEASUREMENT NOTES: Stability of example compounds in solid form (HPLC)
Format: physicochemical
TEST CONDITIONS: solid, amber vial under Ar, 4 weeks, 0° C.
MEASURED PARAMETER: Solid (%) 4 week 0° C.
Write the number in % without appending the unit.

Reference set, count: 5
[
  {
    "MOL SMILES": "CC(C)(C)OC(=O)[C@@H](CCCOS(=O)(=O)c1ccc([N+](=O)[O-])c(C(F)(F)F)c1)C[C@H](NC(c1ccccc1)(c1ccccc1)c1ccccc1)C(=O)OC(C)(C)C",
    "REPORTED MEASUREMENT": 93.4
  },
  {
    "MOL SMILES": "CC(C)(C)OC(=O)[C@@H](CCCOS(=O)(=O)c1ccc2ccccc2c1)C[C@H](NC(c1ccccc1)(c1ccccc1)c1ccccc1)C(=O)OC(C)(C)C",
    "REPORTED MEASUREMENT": 99.8
  },
  {
    "MOL SMILES": "CC(C)(C)OC(=O)[C@@H](CCCOS(=O)(=O)c1c(Cl)cc(Cl)cc1Cl)C[C@H](NC(c1ccccc1)(c1ccccc1)c1ccccc1)C(=O)OC(C)(C)C",
    "REPORTED MEASUREMENT": 95.9
  },
  {
    "MOL SMILES": "CC(C)(C)OC(=O)[C@@H](CCCOS(=O)(=O)c1cccc([N+](=O)[O-])c1)C[C@H](NC(c1ccccc1)(c1ccccc1)c1ccccc1)C(=O)OC(C)(C)C",
    "REPORTED MEASUREMENT": 91.3
  },
  {
    "MOL SMILES": "CC(C)(C)OC(=O)[C@@H](CCCOS(=O)(=O)c1ccc(-c2ccccc2)cc1)C[C@H](NC(c1ccccc1)(c1ccccc1)c1ccccc1)C(=O)OC(C)(C)C",
    "REPORTED MEASUREMENT": 98.4
  }
]

Now consider the entry below.
Can you look up the measured Solid (%) 4 week 0° C. of CC(C)(C)OC(=O)[C@@H](CCCOS(=O)(=O)c1ccc([N+](=O)[O-])cc1)C[C@H](NC(c1ccccc1)(c1ccccc1)c1ccccc1)C(=O)OC(C)(C)C for me?
98.7
